Listed next: entries and their corresponding composite z-score.
# Protocol Text: small molecules captured by biotinylated probe aFSTL3 – biochemical, small-molecule microarray, fluorescence 635/667, stem cell growth factor project, primary screen (AID 1064);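 note: measures binding of the biotinylated anti-FSTL3 antibody to printed compounds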
# Cond: higher = more signal
Recorded Endpoint: composite z-score

Molecule	Readout Value
C=CCC(OC(C)=O)[C@@H]1[C@@H](N(Cc2ccc(-c3ccccc3)cc2)C(=O)c2cccc3ccccc23)c2cc(OCCCO)ccc2N1C(=O)c1ccc2ccccc2n1 (stereo partly specified)	-0.0204
CC1CC/C=C\[C@H]2OC34C=CCN(Cc5ccccc5)C(=O)[C@H]3N(CCO)C(=O)[C@@H]4C2C(=O)O1 (stereo partly specified)	0.767
COCCOC(=O)N1C(=O)[C@@]2(c3cc(C#CCC(C(=O)OC)C(=O)OC)ccc31)[C@H](c1ccc(OCCO)cc1)N1[C@H](c3ccccc3)[C@H](c3ccccc3)OC(=O)[C@H]1[C@@H]2C(N)=O	-0.564
NC(=O)NCC#Cc1ccc2c(c1)[C@]1(C(=O)N2)[C@H](c2ccc(OCCO)cc2)N2[C@H](c3ccccc3)[C@H](c3ccccc3)OC(=O)[C@H]2[C@@H]1C(=O)N1CCN(c2ncccn2)CC1	-0.584
CC(C)NC(=O)[C@@]1(Cc2ccccc2I)c2ccccc2C(=O)N(Cc2ccccc2C(F)(F)F)[C@H]1c1ccc(CO)cc1	0.695
COc1ccc(C(=O)Nc2ccc(CN3C(=O)[C@]4(O[C@H](CCn5cc([C@H](O)c6ccccc6)nn5)[C@@H]([Si](C)(C)c5ccc(OC)cc5)[C@@H]4C)c4ccccc43)cc2)cc1	0.804
